Data origin, for the record: patent US20260242478A1

- system_name: T1, 006 PSMA Fab
- T1 construct: also called Anti-PSMA Fab
- protocol_summary: clonal phage ELISA; biotinylated PSMA Fab on neutravidin plate, bound phage detected with anti-M13-HRP
test_readout: Phage binding ELISA signal, Anti-PSMA Fab

LTSWCVPQWMCDGL [Phage-4005]	0.523
PTSFCRPPWMCEGL [Phage-4007]	0.475
IMQRCEPLWMCSGL [Phage-4008]	0.471
VQPWCVPAWMCDGL [Phage-3997]	0.607
GPKLCLPMWMCQGF [Phage-4009]	0.459

Which Phage binding ELISA signal, Anti-PSMA Fab is reported for this binder? MTNMCRPSWMCAVF [Phage-4002]
0.551

Which Phage binding ELISA signal, Anti-PSMA Fab is reported for this binder? QEMTCVPRWMCSGF [Phage-4000]
0.566

Which Phage binding ELISA signal, Anti-PSMA Fab is reported for this binder? DIEVCRPHWMCEGF [Phage-4003]
0.542

Which Phage binding ELISA signal, Anti-PSMA Fab is reported for this binder? EVKKCVPAWMCESQ [Phage-4004]
0.542

Which Phage binding ELISA signal, Anti-PSMA Fab is reported for this binder? GTQACVPLWMCEGI [Phage-3996]
0.62

Which Phage binding ELISA signal, Anti-PSMA Fab is reported for this binder? VQRVCVPTWMCDVF [Phage-3999]
0.584
